// reported Sample B (Probe) Signal for each item listed
Target: T1, native human ESRRG protein (Estrogen-receptor related receptor gamma) (human, UniProt P62508 229-458, limits assumed)
T1 construct: the screened protein is called 'native human ESRRG protein'; also called ESSRG; ERRγ
T1 sequence (looked up): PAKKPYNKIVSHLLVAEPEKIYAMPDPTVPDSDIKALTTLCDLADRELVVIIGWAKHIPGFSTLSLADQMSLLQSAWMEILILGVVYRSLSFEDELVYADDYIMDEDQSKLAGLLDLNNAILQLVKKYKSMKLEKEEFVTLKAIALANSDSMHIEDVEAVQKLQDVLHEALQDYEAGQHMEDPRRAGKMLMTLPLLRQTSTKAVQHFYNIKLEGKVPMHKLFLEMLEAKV
Experiment: peptide microarray, Iteration 1; bound ESRRG detected with fluorescent anti-ESRRG mAb
Where no end group is shown, it is not given here.
PROPERTY_NAME: Sample B (Probe) Signal

BINDER: Ac-RKAIFGKY
MEAS_VALUE: 818 fluorescence intensity units
--
BINDER: Ac-ANNSLLLH
MEAS_VALUE: 1320 fluorescence intensity units
--
BINDER: Ac-AANYLLLL
MEAS_VALUE: 3760 fluorescence intensity units
--
BINDER: Ac-NSLKKHLL
MEAS_VALUE: 9220 fluorescence intensity units
--
BINDER: Ac-NIKVNANN
MEAS_VALUE: 599 fluorescence intensity units
--
BINDER: Ac-ANNFLLLH
MEAS_VALUE: 1620 fluorescence intensity units
--
BINDER: Ac-ANNSWLLH
MEAS_VALUE: 1260 fluorescence intensity units
--
BINDER: Ac-LLHKSKSQ
MEAS_VALUE: 962 fluorescence intensity units
--
BINDER: Ac-AANMYLLL
MEAS_VALUE: 4010 fluorescence intensity units
--
BINDER: Ac-RKALVGKY
MEAS_VALUE: 868 fluorescence intensity units
--
BINDER: Ac-NSLRQHLL
MEAS_VALUE: 3240 fluorescence intensity units
--
BINDER: Ac-IKQNHNNS
MEAS_VALUE: 794 fluorescence intensity units
--
BINDER: Ac-IKQDHNNS
MEAS_VALUE: 701 fluorescence intensity units
--
BINDER: Ac-ANNVLLLH
MEAS_VALUE: 2000 fluorescence intensity units
--
BINDER: Ac-ANNVKLLH
MEAS_VALUE: 1720 fluorescence intensity units
--
BINDER: Ac-ANNIWLLH
MEAS_VALUE: 1010 fluorescence intensity units
--
BINDER: Ac-AIRGHLMG
MEAS_VALUE: 935 fluorescence intensity units
--
BINDER: Ac-AANNYLLL
MEAS_VALUE: 3440 fluorescence intensity units
--
BINDER: Ac-NSLRSHLL
MEAS_VALUE: 1670 fluorescence intensity units
--
BINDER: Ac-LLHLQKSQ
MEAS_VALUE: 745 fluorescence intensity units
--
BINDER: Ac-NSLLQHLL
MEAS_VALUE: 9740 fluorescence intensity units
--
BINDER: Ac-LHLKGSQT
MEAS_VALUE: 622 fluorescence intensity units
--
BINDER: Ac-AANMLLLL
MEAS_VALUE: 1190 fluorescence intensity units
--
BINDER: Ac-ANNSRLLH
MEAS_VALUE: 1480 fluorescence intensity units
--
BINDER: Ac-ANNLWLLH
MEAS_VALUE: 1610 fluorescence intensity units
--
BINDER: Ac-NNSWSLHL
MEAS_VALUE: 729 fluorescence intensity units
--
BINDER: Ac-AANYILLL
MEAS_VALUE: 2010 fluorescence intensity units
--
BINDER: Ac-IKQNYNNS
MEAS_VALUE: 740 fluorescence intensity units
--
BINDER: Ac-LHLRYSQT
MEAS_VALUE: 961 fluorescence intensity units
--
BINDER: Ac-ANNLQLLH
MEAS_VALUE: 1540 fluorescence intensity units
--
BINDER: Ac-NIKVHANN
MEAS_VALUE: 863 fluorescence intensity units
--
BINDER: Ac-AIRGALMG
MEAS_VALUE: 851 fluorescence intensity units
